assay name: Cell viability of TZM-bl cells (PrestoBlue)
Format: cell-based
experimental parameters: human
measure: CC50 at 48 h
Form entry: enter the amount, then its unit.

# input Need CC50 at 48 h of Cc1[nH]c2ccc(-c3nnc(SCCN4CCCCC4)o3)cc2c1C [Compound 24] , thanks.
# output 40.3 µM

# input Need CC50 at 48 h of Cc1[nH]c2ccc(-c3nnc(SCCC(=O)O)o3)cc2c1C [Compound B] , thanks.
# output 44.6 µM

# input Need CC50 at 48 h of Cc1[nH]c2ccc(-c3nnc(SCC(=O)N4CCCCC4)o3)cc2c1C [Compound 9] , thanks.
# output 63.2 µM

# input Need CC50 at 48 h of Cc1[nH]c2ccc(-c3nnc(SCC(=O)N4CCCC(C)C4)o3)cc2c1C (centres unmarked) [Compound 10] , thanks.
# output 82.5 µM

# input Need CC50 at 48 h of Cc1[nH]c2ccc(-c3nnc(SC(C)C(=O)N4CCCCC4)o3)cc2c1C (centres unmarked) [Compound 11] , thanks.
# output 27.1 µM

Data provenance: paper PMC11459959
